Data origin, for the record: patent US20110165066A1

Provide the reported pKd of each item.
measured.target: T1, human IL-13 variant (R130Q) (human, UniProt P35225 35-146)
T1 construct: called R110Q in the assay descriptions (mature numbering); also called h IL-13v; hIL-13v
T1 sequence (P35225 35-146 limits assumed, stated change not applied): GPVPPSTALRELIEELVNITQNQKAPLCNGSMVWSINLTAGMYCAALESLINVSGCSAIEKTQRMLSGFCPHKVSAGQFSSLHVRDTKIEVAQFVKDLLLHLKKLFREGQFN
protocol.notes: SPR (Biacore), mAb captured, IL-13 as analyte
One number for each entry, as −log10 of the molar value.

binder	pKd
5F1 (antibody, V domains shown) VH: QVQLQQSGAELARPGTSVKLSCKASGYTFTTYGISWVKQRTGQGLEWIGEIYPGSYNTYYNEKFRGKATLTADKSSSTAYMQLSSLTSEDSAVYFCSRWRTSYFSDYGYFDYWGQGTTLTVSS VL: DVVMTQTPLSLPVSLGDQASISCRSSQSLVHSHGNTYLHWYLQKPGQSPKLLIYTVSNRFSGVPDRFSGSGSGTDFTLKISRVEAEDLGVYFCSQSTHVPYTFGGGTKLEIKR	10.50
8B6 (antibody, V domains shown) VH: QVQLKESGPGLVAPSQSLSITCTVSGFSLTGHNINWVRQPPGKGLEWLGMIWGDGNTDFNSALKSRLSISKDNSKSQVFLKLNSLQTDDTARYYCARDGYYPYAIKFWGQGTSVTVSS VL: HIVLTQSPASLAVSLGQRATISCRASETVDSYGSSFLHWYQQKPGQPPKLLIYLASKLESGVPARFSGSGSRTDFTLTIDPVEADDAATYYCQQNNEGPRTFGGGSKLEIKR	9.01

Attention now shifts to the item below.
Problem: For 13C5 (antibody, V domains shown, also called murine 13C5) VH: QVTLKESGPGILQPSQTLSLTCSFSGFSLSTSDMGVDWIRQPSGKGLEWLAHIWWDDVKRYNPALKSRLTISKDTSSSQVFLMLASVDTADTATYYCARTVSSGYIYYAMDYWGQGTSVTVSS VL: DIQMTQTASSLSASLGDRVTISCRASQDIRNYLNWYQRKPDGTVKLLIFYTSKLHSGVPSRFSGSGSGTDYSLTIRNLEQEDIATYFCQQGNTLPLTFGGGTKLEIKR , what is its reported pKd?
Result: 10.12
